// reported A/G for each item listed
# Species: Rattus norvegicus
# experiment summary: Open TG-GATES - Regimen: Single
# Assay type: toxicity, organism-based, Sprague-Dawley
# Set-up: regimen Single, gender Male, age 6 weeks
# conditions used: in vivo, po, 0 mg/kg, 9 h, tissue Plasma, route gavage, dose level Control
Give the figure by itself; no unit, no explanation.

Looking for the measured A/G of C[C@H]1C(=O)O[C@@H]2CCN3CC=C(COC(=O)[C@](C)(O)[C@]1(C)O)[C@H]23 , can you help?
1.3

Looking for the measured A/G of O=[N+]([O-])c1ccc(O)c([N+](=O)[O-])c1 , can you help?
2.5
